test system: Caco-2 cell monolayers; experiment: Effects of influx/efflux transporter inhibitors and CO on morroniside transport in Caco-2 cell monolayers; type: in vitro ADME, human; conditions: 25 μM morroniside; BL to AP; with verapamil 100 μM
quantity: PappBA (mean)

COC(=O)C1=CO[C@@H](O[C@@H]2O[C@H](CO)[C@@H](O)[C@H](O)[C@H]2O)[C@@H]2[C@H](C)O[C@@H](O)C[C@H]12 [morroniside, Morroniside] = 2.93 ×10⁻⁶ cm/s

----------
system: Caco-2 cell monolayers; assay: Effects of influx/efflux transporter inhibitors and CO on morroniside transport in Caco-2 cell monolayers; type: in vitro ADME, human; details: 25 μM morroniside; BL to AP; with benzbromarone 50 μM
quantity: PappBA (mean) (×10⁻⁶ cm/s)

COC(=O)C1=CO[C@@H](O[C@@H]2O[C@H](CO)[C@@H](O)[C@H](O)[C@H]2O)[C@@H]2[C@H](C)O[C@@H](O)C[C@H]12 [morroniside, Morroniside] = 3.04

----------
test: Effects of influx/efflux transporter inhibitors and CO on morroniside transport in Caco-2 cell monolayers; format: in vitro ADME, human; conditions: human, Caco-2, pH 7.4, morroniside given as CO 0.63 mg/mL (containing 25 μM morroniside); read-out: Efflux ratio P
quantity: efflux ratio at 180 min, 25 μM

COC(=O)C1=CO[C@@H](O[C@@H]2O[C@H](CO)[C@@H](O)[C@H](O)[C@H]2O)[C@@H]2[C@H](C)O[C@@H](O)C[C@H]12 [morroniside, Morroniside] = 0.49

----------
test system: Caco-2 cell monolayers; experiment: Effects of influx/efflux transporter inhibitors and CO on morroniside transport in Caco-2 cell monolayers; format: in vitro ADME, human; conditions: 25 μM morroniside; AP to BL; with verapamil 100 μM
quantity: PappAB (mean) (×10⁻⁶ cm/s)

COC(=O)C1=CO[C@@H](O[C@@H]2O[C@H](CO)[C@@H](O)[C@H](O)[C@H]2O)[C@@H]2[C@H](C)O[C@@H](O)C[C@H]12 [morroniside, Morroniside] = 1.84

----------
System: P-gp
Assay: Effects of influx/efflux transporter inhibitors and CO on morroniside transport in Caco-2 cell monolayers
Type: in vitro ADME, human
Settings: human, Caco-2, pH 7.4, with verapamil 100 μM, 25 μM morroniside; with verapamil 100 μM (P-gp inhibitor)
Description: An initial stock solution of morroniside in methanol was prepared. The stock solution was then diluted with HBSS (pH = 7.4) and the final concentration of methanol in HBSS remained at 0.5%. […] The transepithelial electrical resistance (TEER) value was measured with a Millipore ERS voltameter (Burlington, MA, USA) in order to evaluate and determine monolayer integrity. The monolayers were ready for experiments 19 to 22 days after seeding. […]
quantity: efflux ratio at 180 min, 25 μM

COC(=O)C1=CO[C@@H](O[C@@H]2O[C@H](CO)[C@@H](O)[C@H](O)[C@H]2O)[C@@H]2[C@H](C)O[C@@H](O)C[C@H]12 [morroniside, Morroniside] = 1.59

----------
test: Transport of morroniside across Caco-2 cell monolayers (bidirectional, concentration and pH); format: in vitro ADME, human; details: human, Caco-2, AP side pH 6.0, BL side pH 7.4; 100μM morroniside; 37 °C; n = 3; read-out: PappAB
quantity: Papp A→B at 180 min, 100 μM (×10⁻⁶ cm/s)

COC(=O)C1=CO[C@@H](O[C@@H]2O[C@H](CO)[C@@H](O)[C@H](O)[C@H]2O)[C@@H]2[C@H](C)O[C@@H](O)C[C@H]12 [morroniside, Morroniside] = 0.62

----------
assay: Transport of morroniside across Caco-2 cell monolayers (bidirectional, concentration and pH); type: in vitro ADME, human; conditions: human, Caco-2, pH 7.4, 25 μM morroniside; AP to BL; pH 7.4; 37 °C; n = 3; read-out: PappAB AP-BL
quantity: Papp A→B at 180 min, 25 μM (×10⁻⁶ cm/s)

COC(=O)C1=CO[C@@H](O[C@@H]2O[C@H](CO)[C@@H](O)[C@H](O)[C@H]2O)[C@@H]2[C@H](C)O[C@@H](O)C[C@H]12 [morroniside, Morroniside] = 1.83

----------
tested on: BCRP; assay: Effects of influx/efflux transporter inhibitors and CO on morroniside transport in Caco-2 cell monolayers; format: in vitro ADME, human; conditions: human, Caco-2, pH 7.4, with apigenin 25 μM, 25 μM morroniside; with apigenin 25 μM (BCRP inhibitor); read-out: Efflux ratio P
quantity: efflux ratio at 180 min, 25 μM

COC(=O)C1=CO[C@@H](O[C@@H]2O[C@H](CO)[C@@H](O)[C@H](O)[C@H]2O)[C@@H]2[C@H](C)O[C@@H](O)C[C@H]12 [morroniside, Morroniside] = 0.45

----------
Experiment: Transport of morroniside across Caco-2 cell monolayers (bidirectional, concentration and pH)
Format: in vitro ADME, human
Conditions: human, Caco-2, pH 7.4, range over 5, 25 and 100 μM; AP-to-BL; read-out: apparent permeability coefficient (Papp) AP-to-BL
Method: An initial stock solution of morroniside in methanol was prepared. The stock solution was then diluted with HBSS (pH = 7.4) and the final concentration of methanol in HBSS remained at 0.5%. […] The transepithelial electrical resistance (TEER) value was measured with a Millipore ERS voltameter (Burlington, MA, USA) in order to evaluate and determine monolayer integrity. The monolayers were ready for experiments 19 to 22 days after seeding. […]
quantity: Papp A→B at 180 min

COC(=O)C1=CO[C@@H](O[C@@H]2O[C@H](CO)[C@@H](O)[C@H](O)[C@H]2O)[C@@H]2[C@H](C)O[C@@H](O)C[C@H]12 [morroniside, Morroniside] = 1.59 to 2.66 ×10⁻⁶ cm/s

----------
test: Transport of morroniside across Caco-2 cell monolayers (bidirectional, concentration and pH); type: in vitro ADME, human; conditions: human, Caco-2, pH 7.4, AP side pH 7.4; 5μM morroniside; 37 °C; n = 3; read-out: PappAB
quantity: Papp A→B at 180 min, 5 μM (×10⁻⁶ cm/s)

COC(=O)C1=CO[C@@H](O[C@@H]2O[C@H](CO)[C@@H](O)[C@H](O)[C@H]2O)[C@@H]2[C@H](C)O[C@@H](O)C[C@H]12 [morroniside, Morroniside] = 1.88

----------
test system: Na+/K+ pump (Na/K-ATPase); assay: Effects of influx/efflux transporter inhibitors and CO on morroniside transport in Caco-2 cell monolayers; format: in vitro ADME, human; settings: human, Caco-2, pH 7.4, with sodium vanadate 50 μM, with 50 μM sodium vanadate (Na+/K+ pump); read-out: P (efflux ratio PappBA/PappAB)
quantity: efflux ratio at 180 min

COC(=O)C1=CO[C@@H](O[C@@H]2O[C@H](CO)[C@@H](O)[C@H](O)[C@H]2O)[C@@H]2[C@H](C)O[C@@H](O)C[C@H]12 [morroniside, Morroniside] = 1.65

----------
system: BCRP; experiment: Effects of influx/efflux transporter inhibitors and CO on morroniside transport in Caco-2 cell monolayers; assay type: in vitro ADME, human; conditions: human, Caco-2, pH 7.4; 25 μM morroniside; BL to AP; with apigenin 25 μM; read-out: PappBA (mean)
quantity: Papp B→A at 180 min, 25 μM (×10⁻⁶ cm/s)

COC(=O)C1=CO[C@@H](O[C@@H]2O[C@H](CO)[C@@H](O)[C@H](O)[C@H]2O)[C@@H]2[C@H](C)O[C@@H](O)C[C@H]12 [morroniside, Morroniside] = 2.78

----------
tested on: Caco-2 cell monolayers; assay: Effects of influx/efflux transporter inhibitors and CO on morroniside transport in Caco-2 cell monolayers; format: in vitro ADME, human; settings: 25 μM morroniside; BL to AP; Control
quantity: PappBA (mean) (×10⁻⁶ cm/s)

COC(=O)C1=CO[C@@H](O[C@@H]2O[C@H](CO)[C@@H](O)[C@H](O)[C@H]2O)[C@@H]2[C@H](C)O[C@@H](O)C[C@H]12 [morroniside, Morroniside] = 3.06

----------
tested on: MRP2; assay: Effects of influx/efflux transporter inhibitors and CO on morroniside transport in Caco-2 cell monolayers; format: in vitro ADME, human; settings: human, Caco-2, pH 7.4, with indomethacin 200 μM, 25 μM morroniside; with indomethacin 200 μM (MRP2 inhibitor); read-out: Efflux ratio P
quantity: efflux ratio at 180 min, 25 μM

COC(=O)C1=CO[C@@H](O[C@@H]2O[C@H](CO)[C@@H](O)[C@H](O)[C@H]2O)[C@@H]2[C@H](C)O[C@@H](O)C[C@H]12 [morroniside, Morroniside] = 0.26

----------
assay: Transport of morroniside across Caco-2 cell monolayers (bidirectional, concentration and pH); type: in vitro ADME, human; conditions: human, Caco-2, pH 7.4, 100 μM morroniside; AP to BL; over 3 h; read-out: Papp (AP to BL)
quantity: Papp A→B at 180 min, 100 μM (×10⁻⁶ cm/s)

COC(=O)C1=CO[C@@H](O[C@@H]2O[C@H](CO)[C@@H](O)[C@H](O)[C@H]2O)[C@@H]2[C@H](C)O[C@@H](O)C[C@H]12 [morroniside, Morroniside] = 1.59

// data source = paper PMC7259638
